All figures here come from paper PMC11374673.

Tested on: E. coli BW25113
Test: Bacterial cytological profiling (BCP)
Assay type: cell-based, Escherichia coli
Details: BCP
endpointLabel: DAPI roundness

# annotated cases, reported DAPI roundness shown
1. CC1(C)S[C@@H]2[C@H](NC(=O)[C@H](N)c3ccccc3)C(=O)N2[C@H]1C(=O)O [AMP, ampicillin, reference compound] : 0.108 ± 0.020
2. CO[C@H]1/C=C/O[C@@]2(C)Oc3c(C)c(O)c4c(O)c(c(/C=N/N5CCN(C)CC5)c(O)c4c3C2=O)NC(=O)/C(C)=C\C=C\[C@H](C)[C@H](O)[C@@H](C)[C@@H](O)[C@@H](C)[C@H](OC(C)=O)[C@@H]1C [RIF, rifampicin, reference compound] : 0.408 ± 0.029
3. O=S(=O)(NC[C@@H]1CC[C@H](c2ccc(-c3cccnc3)cc2)N1)c1cccc2cnccc12 : 0.220 ± 0.035

We now examine a further compound.
Challenge: Please tell me: DAPI roundness of O=S(=O)(NC[C@H]1CC[C@@H](c2ccc(-c3ccc(F)nc3)cc2)N1)c1cccc2cnccc12 , system E. coli BW25113?
Response given: 0.484 ± 0.024

====

Biological target: P. aeruginosa gyrase (Pseudomonas aeruginosa)
Construct: purchased Inspiralis Ltd. PAG1001
Sequence (P48372 whole entry): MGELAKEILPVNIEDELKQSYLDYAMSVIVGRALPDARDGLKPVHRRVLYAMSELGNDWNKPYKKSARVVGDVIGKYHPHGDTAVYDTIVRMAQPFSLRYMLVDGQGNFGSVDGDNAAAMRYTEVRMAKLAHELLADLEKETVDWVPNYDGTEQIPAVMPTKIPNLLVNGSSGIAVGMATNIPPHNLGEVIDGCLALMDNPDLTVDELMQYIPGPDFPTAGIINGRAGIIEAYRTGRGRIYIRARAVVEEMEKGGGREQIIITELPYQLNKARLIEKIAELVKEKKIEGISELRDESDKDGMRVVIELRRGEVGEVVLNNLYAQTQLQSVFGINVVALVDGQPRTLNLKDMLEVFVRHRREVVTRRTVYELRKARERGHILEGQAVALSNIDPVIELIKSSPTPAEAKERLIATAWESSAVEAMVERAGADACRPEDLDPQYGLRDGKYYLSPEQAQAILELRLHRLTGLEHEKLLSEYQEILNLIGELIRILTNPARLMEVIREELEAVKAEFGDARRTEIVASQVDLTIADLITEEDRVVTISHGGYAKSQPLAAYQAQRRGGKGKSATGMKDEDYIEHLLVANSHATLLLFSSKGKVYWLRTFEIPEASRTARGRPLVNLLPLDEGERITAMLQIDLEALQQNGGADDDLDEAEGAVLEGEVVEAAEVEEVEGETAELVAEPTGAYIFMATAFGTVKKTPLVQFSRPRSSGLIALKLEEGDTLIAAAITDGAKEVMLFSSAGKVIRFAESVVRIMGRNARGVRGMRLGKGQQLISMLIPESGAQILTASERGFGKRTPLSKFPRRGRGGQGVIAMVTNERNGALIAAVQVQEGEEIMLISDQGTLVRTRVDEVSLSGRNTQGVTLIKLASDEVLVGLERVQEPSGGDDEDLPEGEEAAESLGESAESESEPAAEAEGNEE
Sequence (Q9I7C2 whole entry, further chain): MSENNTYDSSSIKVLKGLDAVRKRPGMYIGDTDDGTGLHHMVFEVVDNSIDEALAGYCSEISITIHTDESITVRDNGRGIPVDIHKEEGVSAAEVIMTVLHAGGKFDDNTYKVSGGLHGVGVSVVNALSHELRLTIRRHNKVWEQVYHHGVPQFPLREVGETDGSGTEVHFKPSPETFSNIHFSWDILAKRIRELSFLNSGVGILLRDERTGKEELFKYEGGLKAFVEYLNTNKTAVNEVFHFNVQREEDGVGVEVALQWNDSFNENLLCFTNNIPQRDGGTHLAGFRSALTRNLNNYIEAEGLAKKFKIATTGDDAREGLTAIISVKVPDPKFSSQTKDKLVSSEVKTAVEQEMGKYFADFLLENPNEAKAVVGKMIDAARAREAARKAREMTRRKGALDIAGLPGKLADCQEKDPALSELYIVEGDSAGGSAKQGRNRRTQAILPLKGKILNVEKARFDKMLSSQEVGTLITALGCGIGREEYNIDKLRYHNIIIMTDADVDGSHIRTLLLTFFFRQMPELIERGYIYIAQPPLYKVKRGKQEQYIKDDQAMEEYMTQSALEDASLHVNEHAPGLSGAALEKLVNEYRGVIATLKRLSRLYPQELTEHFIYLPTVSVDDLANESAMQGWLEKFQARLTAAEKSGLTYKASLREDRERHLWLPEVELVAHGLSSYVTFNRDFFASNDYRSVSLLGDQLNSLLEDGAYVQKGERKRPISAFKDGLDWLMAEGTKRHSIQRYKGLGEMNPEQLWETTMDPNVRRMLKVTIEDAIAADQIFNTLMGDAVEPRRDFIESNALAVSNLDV
Assay: Gyrase supercoiling inhibition
Type: biochemical
endpointLabel: pIC50
Numbers only, as −log10 of the molar value.

Challenge: Suppose we examine the compound O=S(=O)(NC[C@@H]1CC[C@H](c2ccc(-c3cccnc3)cc2)N1)c1cccc2cnccc12 ; what pIC50 value has been reported?
Response given: 7.02

====

System: E. coli BW25113
Test: Bacterial cytological profiling (BCP)
Format: cell-based, Escherichia coli
Conditions: BCP, standardized to DMSO control
Assign DAPI intensity to each entry below.
Give bare numbers.

1. CC1(C)S[C@@H]2[C@H](NC(=O)[C@H](N)c3ccccc3)C(=O)N2[C@H]1C(=O)O [AMP, ampicillin, reference compound] : 1.490

Record DAPI intensity for all entries; do not skip any.
1. O=S(=O)(NC[C@@H]1CC[C@H](c2ccc(-c3cccnc3)cc2)N1)c1cccc2cnccc12 [LEI-800]
2. O=S(=O)(NC[C@H]1CC[C@@H](c2ccc(-c3ccc(F)nc3)cc2)N1)c1cccc2cnccc12 [LEI-801]
3. CO[C@H]1/C=C/O[C@@]2(C)Oc3c(C)c(O)c4c(O)c(c(/C=N/N5CCN(C)CC5)c(O)c4c3C2=O)NC(=O)/C(C)=C\C=C\[C@H](C)[C@H](O)[C@@H](C)[C@@H](O)[C@@H](C)[C@H](OC(C)=O)[C@@H]1C [RIF, rifampicin, reference compound]

Response given:
1: 0.513; 2: 1.156; 3: 0.704

====

System: E. coli W3110
Test: MIC by broth microdilution
Assay type: cell-based, Escherichia coli
Conditions: Escherichia coli, W3110, WT, broth microdilution; read-out: MIC E. coli W3110
Description: MIC was determined by broth microdilution. Single-colony cultures were grown to exponential phase (OD600 of 0.5) aerobically at 37 °C. In case of strains from the Keio collection, 50 µg ml^−1 kanamycin was supplemented to the media to ascertain a homogeneous population. The bacterial suspensions were diluted 100-fold in CAMHB and 50 µl was added to a twofold serial dilution series of test compounds (50 µl per well) in polypropylene 96-well microtitre plates to reach a volume of 100 µl. […]
endpointLabel: MIC (µM)
One number for each entry, in µM.

Record excerpt, results attached:
1) N#Cc1ccccc1-c1ccc(CNCCNS(=O)(=O)c2cccc3cnccc23)cc1 [Compound 72] : 25
2) O=S(=O)(NC[C@H]1CC[C@H](c2ccc(-c3ccc(F)nc3)cc2)N1)c1cccc2cnccc12 [Compound 97] : 12.5
3) O=S(=O)(NCCNCc1ccc(-c2ccc(Cl)cc2)cc1)c1cccc2cnccc12 [Compound 61] : 6.25

Switching to the query record.
Challenge: Looking for the measured MIC of COc1ccccc1-c1ccc(CNCCNS(=O)(=O)c2cccc3cnccc23)cc1 [Compound 73] , can you help?
Response given: 25

====

Test system: E. coli W3110
Test: MIC by broth microdilution
Type: cell-based, Escherichia coli
Settings: Escherichia coli, W3110, WT, broth microdilution; read-out: MIC E. coli W3110
endpointLabel: MIC (µM)
Give bare numbers, in µM.

Kindly give each listed record's MIC.
1. O=S(=O)(NC[C@@H]1CC[C@H](c2ccc(-c3ccc(F)nc3)cc2)N1)c1cccc2cnccc12
2. O=S(=O)(NCCNCc1ccc(-c2cccnc2)cc1)c1cccc2ccccc12
3. O=S(=O)(NCCNCc1ccc(-c2ccncc2)cc1)c1cccc2cnccc12

Response given:
[3.1, 25, 12.5]

For each of the molecules below, state MIC.
1. O=S(=O)(NCCNCc1ccc(-c2cccc(C(F)(F)F)c2)cc1)c1cccc2cnccc12
2. N#Cc1cccc(-c2ccc(CNCCNS(=O)(=O)c3cccc4cnccc34)cc2)c1

Response given:
1. 25
2. 12.5

====

Assignment: determine reported Decondensation for the given compounds.
Tested on: E. coli BW25113
Assay: Bacterial cytological profiling (BCP)
Format: cell-based, Escherichia coli
Details: BCP
Answers are plain numbers.

The cases that follow already have their Decondensation on record.
1. O=S(=O)(NC[C@H]1CC[C@@H](c2ccc(-c3ccc(F)nc3)cc2)N1)c1cccc2cnccc12 : 0.863
2. CC1(C)S[C@@H]2[C@H](NC(=O)[C@H](N)c3ccccc3)C(=O)N2[C@H]1C(=O)O [AMP, ampicillin, reference compound] : 0.619
3. O=S(=O)(NC[C@@H]1CC[C@H](c2ccc(-c3cccnc3)cc2)N1)c1cccc2cnccc12 : 0.616

Challenge: Entry CO[C@H]1/C=C/O[C@@]2(C)Oc3c(C)c(O)c4c(O)c(c(/C=N/N5CCN(C)CC5)c(O)c4c3C2=O)NC(=O)/C(C)=C\C=C\[C@H](C)[C@H](O)[C@@H](C)[C@@H](O)[C@@H](C)[C@H](OC(C)=O)[C@@H]1C [RIF, rifampicin, reference compound] has what Decondensation?
Response given: 0.922

====

System: E. coli BW25113
Test: Bacterial cytological profiling (BCP)
Assay type: cell-based, Escherichia coli
Parameters: unit not given here
Settings: BCP
For each entry below, report its DAPI total area value.
Give bare numbers.

The cases that follow already have their DAPI total area on record.
1. O=S(=O)(NC[C@@H]1CC[C@H](c2ccc(-c3cccnc3)cc2)N1)c1cccc2cnccc12 : 8.438
2. O=S(=O)(NC[C@H]1CC[C@@H](c2ccc(-c3ccc(F)nc3)cc2)N1)c1cccc2cnccc12 : 2.897
3. CC1(C)S[C@@H]2[C@H](NC(=O)[C@H](N)c3ccccc3)C(=O)N2[C@H]1C(=O)O [AMP, ampicillin, reference compound] : 19.710

Read the next record carefully.
Challenge: Reported DAPI total area for CO[C@H]1/C=C/O[C@@]2(C)Oc3c(C)c(O)c4c(O)c(c(/C=N/N5CCN(C)CC5)c(O)c4c3C2=O)NC(=O)/C(C)=C\C=C\[C@H](C)[C@H](O)[C@@H](C)[C@@H](O)[C@@H](C)[C@H](OC(C)=O)[C@@H]1C [RIF, rifampicin, reference compound] : what is it?
Response given: 5.402

====

Target: (UniProt Q2FCU6)
endpointLabel: pIC50
One number for each entry, as −log10 of the molar value.

Challenge: Provide value of pIC50 for this record tested with (UniProt Q2FCU6): O=S(=O)(NC[C@@H]1CC[C@H](c2ccc(-c3cccnc3)cc2)N1)c1cccc2cnccc12
Response given: 6.99

====

Task for the reader: assign each of the following molecules its reported MIC.
Tested on: E. coli W3110 gyrA S97L, S83L, D87N
Experiment: MIC against CRISPR/Cas9 gyrA point mutants
Type: cell-based, Escherichia coli
Details: Escherichia coli, E. coli W3110 gyrA S83L (FQ-resistant 1)

Worked cases, answers included:
1. O=S(=O)(NC[C@@H]1CC[C@H](c2ccc(-c3ccc(F)cc3)cc2)N1)c1cccc2cnccc12 [Compound 101] : 3.1 µM
2. O=C(O)c1cn(C2CC2)c2cc(N3CCNCC3)c(F)cc2c1=O [CIP, ciprofloxacin] : > 1.5 µM
3. O=S(=O)(NC[C@@H]1CC[C@H](c2ccc(-c3cccnc3)cc2)N1)c1cccc2cnccc12 [LEI-800] : 6.25 µM

Challenge: Form: Entry = O=S(=O)(NCCNCc1ccc(-c2ccc(F)nc2)cc1)c1cccc2cnccc12 [Compound 60] | System = E. coli W3110 gyrA S97L, S83L, D87N | MIC = ____
Response given: 25 µM

====

Test system: E. coli BW25113
Test: Bacterial cytological profiling (BCP)
Format: cell-based, Escherichia coli
Set-up: unit not given here
Conditions: BCP
Can you tell me DAPI nucleoid area for the items I'm about to list?
One number for each entry.

The examples below pair each entry with its known result.
1) O=S(=O)(NC[C@@H]1CC[C@H](c2ccc(-c3cccnc3)cc2)N1)c1cccc2cnccc12 [LEI-800] : 6.481
2) O=S(=O)(NC[C@H]1CC[C@@H](c2ccc(-c3ccc(F)nc3)cc2)N1)c1cccc2cnccc12 [LEI-801] : 2.366
3) CO[C@H]1/C=C/O[C@@]2(C)Oc3c(C)c(O)c4c(O)c(c(/C=N/N5CCN(C)CC5)c(O)c4c3C2=O)NC(=O)/C(C)=C\C=C\[C@H](C)[C@H](O)[C@@H](C)[C@@H](O)[C@@H](C)[C@H](OC(C)=O)[C@@H]1C [RIF, rifampicin, reference compound] : 4.992

Let us examine a further case.
Challenge: Which DAPI nucleoid area reading was recorded for the compound CC1(C)S[C@@H]2[C@H](NC(=O)[C@H](N)c3ccccc3)C(=O)N2[C@H]1C(=O)O [AMP, ampicillin, reference compound] ?
Response given: 9.445
